Biological target: human PARP-1 (Homo sapiens)
Construct: purchased Trevigen 4667-250-01
Sequence (P09874 whole entry): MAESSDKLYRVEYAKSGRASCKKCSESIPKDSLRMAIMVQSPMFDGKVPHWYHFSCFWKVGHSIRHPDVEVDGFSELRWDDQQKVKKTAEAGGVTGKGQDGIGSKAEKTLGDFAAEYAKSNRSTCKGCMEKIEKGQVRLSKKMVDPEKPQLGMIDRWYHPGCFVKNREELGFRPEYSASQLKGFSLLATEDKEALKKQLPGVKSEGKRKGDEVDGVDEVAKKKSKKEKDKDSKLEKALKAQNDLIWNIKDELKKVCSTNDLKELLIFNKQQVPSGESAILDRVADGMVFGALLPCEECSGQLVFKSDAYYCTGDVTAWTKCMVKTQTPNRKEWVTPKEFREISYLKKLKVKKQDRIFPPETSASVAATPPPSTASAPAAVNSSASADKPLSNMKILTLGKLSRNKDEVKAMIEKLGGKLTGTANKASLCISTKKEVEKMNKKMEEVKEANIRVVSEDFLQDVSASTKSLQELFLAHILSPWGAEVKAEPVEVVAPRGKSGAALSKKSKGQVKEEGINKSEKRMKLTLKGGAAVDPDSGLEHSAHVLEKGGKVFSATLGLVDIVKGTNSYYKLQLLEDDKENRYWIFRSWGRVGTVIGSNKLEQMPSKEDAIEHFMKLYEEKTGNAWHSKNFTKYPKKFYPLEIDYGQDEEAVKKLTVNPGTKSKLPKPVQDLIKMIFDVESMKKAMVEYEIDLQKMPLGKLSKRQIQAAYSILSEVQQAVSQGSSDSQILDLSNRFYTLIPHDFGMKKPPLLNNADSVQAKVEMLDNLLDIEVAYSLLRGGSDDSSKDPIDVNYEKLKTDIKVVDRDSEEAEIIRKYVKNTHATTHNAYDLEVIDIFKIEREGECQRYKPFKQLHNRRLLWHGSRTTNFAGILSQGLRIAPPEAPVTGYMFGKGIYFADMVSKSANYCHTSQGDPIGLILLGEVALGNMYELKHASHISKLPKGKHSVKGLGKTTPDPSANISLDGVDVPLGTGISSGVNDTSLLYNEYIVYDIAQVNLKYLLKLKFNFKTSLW
Experiment: Biotin-Avidin PARP assay (biotinylated NAD auto-ribosylation, immobilized PARP)
Type: biochemical
Conditions: PARP-1 coated on plates overnight at 4° C., 25 μM biotinylated NAD, 100 μM unlabelled NAD, sheared DNA; read-out: Biotin Avidin PARP (IC50)
property.label: IC50 (nM)
Please respond with the number in nM and leave the unit unwritten.

Q) Data request, read-out IC50, for NC(=O)c1cccc2cccc(C(=O)O)c12 [Compound B]
A) 329

###

Overview of reported pIC50 across a group of compounds:
Biological target: PARP (Homo sapiens)
Construct: purchased R&D Systems, Inc. TA5334
Experiment: commercially available [32P] NAD-based PARP assay (R&D Systems)
Format: biochemical
Settings: [32P]-NAD based kit
Answer as the number alone; pIC50 is minus log10 of concentration in mol/L.

>  <compound>
NC(=O)c1cccc2cccc(C(=O)O)c12 [Compound B]

>  <tested.on>
PARP (Homo sapiens)

>  <observed>
6.48

$$$$

// below: pIC50 requested for another compound
Q) Which pIC50 is reported for this compound? Cc1nc2c(O)cccc2c(=O)[nH]1 [Compound A, 8-hydroxy-2-methyl-quinazolin-4-[3H]-one]
A) 6.50
